# ASSAY_METHOD_TEXT: Pharmacokinetic study in mice, intravenous 1 mg/kg
# Type: in vivo, C57BL/6 mice

CPD_SMILES	Vss
COCCNC(=O)c1ccc(-n2ccc3cc(C(=O)N4CCCCC4)cnc32)cc1	0.58 L/kg
COCCNC(=O)c1ccc(-n2ccc3cc(C(=O)N4CCC(F)CC4)cnc32)cc1	1.39 L/kg
CN(C)C(=O)c1ccc(-n2ccc3cc(C(=O)N4CCCCC4)cnc32)cc1	0.76 L/kg
CNC(=O)c1ccc(-n2ccc3cc(C(=O)N4CCC(F)CC4)cnc32)cc1	1.56 L/kg
O=C(c1cnc2c(ccn2-c2ccc(O)nc2)c1)N1CCCCC1	3.99 L/kg
NC(=O)c1ncc(-n2ccc3cc(C(=O)N4CCCCC4)cnc32)cn1	5.16 L/kg
CNC(=O)c1ccc(-n2ccc3cc(C(=O)N4CCCCC4)cnc32)cc1	1.58 L/kg
NC(=O)c1ccc(-n2ccc3cc(C(=O)N4CCC(F)CC4)cnc32)cc1	1.52 L/kg
Cc1c(C(=O)N2CCC(F)CC2)cnc2c1ccn2-c1ccc(C(N)=O)cc1	2.52 L/kg

----------
# ASSAY_METHOD_TEXT: Pharmacokinetic study in mice, intravenous 1 mg/kg
# Assay type: in vivo, C57BL/6 mice
Response key: Yes means AUCinf >= 200 ng·h/mL; No means AUCinf < 200 ng·h/mL.

MOLECULE	ANSWER_LABEL
CNC(=O)c1ccc(-n2ccc3cc(C(=O)N4CCCCC4)cnc32)cc1 [Formula VIII]	No
COCCNC(=O)c1ccc(-n2ccc3cc(C(=O)N4CCC(F)CC4)cnc32)cc1 [Formula XI]	No
COCCNC(=O)c1ccc(-n2ccc3cc(C(=O)N4CCCCC4)cnc32)cc1 [Formula X]	No
Cc1c(C(=O)N2CCC(F)CC2)cnc2c1ccn2-c1ccc(C(N)=O)cc1 [Formula VI]	Yes
CNC(=O)c1ccc(-n2ccc3cc(C(=O)N4CCC(F)CC4)cnc32)cc1 [Formula VII]	Yes
NC(=O)c1ccc(-n2ccc3cc(C(=O)N4CCC(F)CC4)cnc32)cc1 [Formula IX]	No
O=C(c1cnc2c(ccn2-c2ccc(O)nc2)c1)N1CCCCC1 [Formula XIV]	No
CN(C)C(=O)c1ccc(-n2ccc3cc(C(=O)N4CCCCC4)cnc32)cc1 [Formula V]	Yes
NC(=O)c1ncc(-n2ccc3cc(C(=O)N4CCCCC4)cnc32)cn1 [Formula XII]	No

----------
# ASSAY_METHOD_TEXT: Solubility at pH 7.4
# Assay type: physicochemical
# CONDITIONS: aqueous buffer, Table 1, 6-5 ring core
MEASURED_PROPERTY: solubility (µM)

COMPOUND	UNIT_OF_MEASURE	MEASURED_NUMBER
O=C(c1cnc2c(c1)ncn2-c1cccc(Cl)c1)N1CCCCC1 [drawing 103]	µM	21

----------
# TARGET_UNDER_TEST: 15-PGDH/HPGD (Homo sapiens (Human), UniProt P15428)
# Sequence (P15428 whole entry): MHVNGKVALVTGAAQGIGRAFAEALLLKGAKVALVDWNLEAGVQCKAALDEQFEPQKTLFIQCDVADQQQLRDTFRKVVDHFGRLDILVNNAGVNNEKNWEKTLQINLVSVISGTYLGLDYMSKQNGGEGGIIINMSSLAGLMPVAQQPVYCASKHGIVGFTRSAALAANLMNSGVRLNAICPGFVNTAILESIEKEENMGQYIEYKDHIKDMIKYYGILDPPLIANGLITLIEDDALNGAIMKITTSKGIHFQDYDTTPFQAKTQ
# ASSAY_METHOD_TEXT: hPGDH inhibitor screening biochemical assay
# CONDITIONS: Table 1, PGDH inhibitors with a 6-5 ring core; read-out: hPGDH: IC50
# Description: A hydroxyprostaglandin dehydrogenase inhibition screening biochemical assay can be performed to assess the synthesized inhibitors provided herein. Provided herein is an exemplary biochemical assay for hPGDH inhibitor screening. […]
MEASURED_PROPERTY: log10(IC50) (log10 of the value in nM)

MOLECULE	TARGET_UNDER_TEST	log10(IC50)
NC(=O)CCc1nc2cc(C(=O)N3CCCCC3)ccc2n1-c1cccc(Cl)c1 [drawing 85]	15-PGDH/HPGD (Homo sapiens (Human), UniProt P15428)	1.65
O=C(c1ccc2c(c1)ncn2-c1cccc(Cl)c1)N1CCC(F)(F)CC1 [drawing 96]	15-PGDH/HPGD (Homo sapiens (Human), UniProt P15428)	1.09
Cc1nc2cc(C(=O)N3CCCCC3)ccc2n1-c1cccc(Cl)c1 [drawing 89]	15-PGDH/HPGD (Homo sapiens (Human), UniProt P15428)	0.75
O=C(c1cnc2c(ccn2-c2cnccn2)c1)N1CCCCC1 [drawing 81]	15-PGDH/HPGD (Homo sapiens (Human), UniProt P15428)	-0.22
COc1ccc(-n2cnc3cc(C(=O)N4CCCCC4)ccc32)cc1 [drawing 110]	15-PGDH/HPGD (Homo sapiens (Human), UniProt P15428)	0.81

----------
# TARGET_UNDER_TEST: 15-PGDH/HPGD (Homo sapiens (Human))
# ASSAY_METHOD_TEXT: hPGDH inhibitor screening biochemical assay
# CONDITIONS: 10 nM 15-PGDH/HPGD, 15 μM PGE2, 0.25 mM NAD; read-out: hPGDH: Average IC50
# Description: A hydroxyprostaglandin dehydrogenase inhibition screening biochemical assay can be performed to assess the synthesized inhibitors provided herein. Provided herein is an exemplary biochemical assay for hPGDH inhibitor screening. […]
Measured IC50 accompanies every entry in the list below.

CPD_SMILES	IC50
CC(C)(O)c1ccc(-n2ccc3cc(C(=O)N4CCCCC4)cnc32)cc1	< 100 nM
CCOC(=O)c1nc2cc(C(=O)N3CCCCC3)ccc2n1-c1cccc(Cl)c1	< 100 nM
O=C(Nc1cc(C2CC2)[nH]n1)c1cccc(-n2ccc3cc(C(=O)N4CCC(F)(F)CC4)cnc32)c1	< 100 nM
Cn1cc(-n2ccc3cc(C(=O)N4CCCCC4)cnc32)cn1	< 100 nM
O=C(Nc1ccno1)c1cncc(-n2ccc3cc(C(=O)N4CCC(F)(F)CC4)cnc32)c1	< 100 nM
COc1cncc(-n2cc(Cl)c3cc(C(=O)N4CCCCC4)cnc32)c1	< 100 nM
O=C(c1cnc2c(ccn2-c2cncc(N3CCOC3=O)c2)c1)N1CCC(F)(F)CC1	< 100 nM
COc1ccc(-n2cc(Cl)c3cc(C(=O)N4CCC(F)CC4)cnc32)cc1	< 100 nM
N#Cc1ccc(-n2cnc3cc(C(=O)N4CC(Cl)C4)cnc32)cc1	< 100 nM
CCOC(=O)Cc1nc2cc(C(=O)N3CCCCC3)ccc2n1-c1cccc(Cl)c1	< 100 nM
Cn1cc(-n2ccc3cc(C(=O)N4CCC(F)CC4)cnc32)cn1	< 100 nM
N#Cc1cccc(-n2ccc3cc(C(=O)N4CCCCC4)cnc32)c1	< 100 nM
CN(C)C(=O)c1cncc(-n2ccc3cc(C(=O)N4CCCCC4)cnc32)c1	< 100 nM
O=C(c1cnc2c(c1)c(Cl)cn2-c1ccc2c(c1)OC(F)(F)O2)N1CCC(F)CC1	< 100 nM
O=C(c1ccc(-n2ccc3cc(C(=O)N4CCC(F)(F)CC4)cnc32)cc1)N(CCO)CCO	< 100 nM
CS(=O)(=O)NCCNC(=O)c1cccc(-n2ccc3cc(C(=O)N4CCC(F)(F)CC4)cnc32)c1	< 100 nM
CN(C(=O)c1ccc2c(c1)ncn2-c1cccc(Cl)c1)C1CC1	≥ 1000 nM
O=C(c1cnc2c(ccn2-c2ccc3c(c2)OC(F)(F)O3)c1)N1CCCCC1	< 100 nM
NC(=O)c1ccc(-n2ccc3cc(C(=O)N4CCCCC4)cnc32)cn1	< 100 nM

----------
Measured AUClast accompanies every entry in the list below.
# ASSAY_METHOD_TEXT: Pharmacokinetic study in mice, intravenous 1 mg/kg
# Assay type: in vivo, C57BL/6 mice

MOLECULE	AUClast / ng·h/mL
CN(C)C(=O)c1ccc(-n2ccc3cc(C(=O)N4CCCCC4)cnc32)cc1 [Formula V]	262.46
COCCNC(=O)c1ccc(-n2ccc3cc(C(=O)N4CCCCC4)cnc32)cc1 [Formula X]	146.28
COCCNC(=O)c1ccc(-n2ccc3cc(C(=O)N4CCC(F)CC4)cnc32)cc1 [Formula XI]	130.44
NC(=O)c1ccc(-n2ccc3cc(C(=O)N4CCC(F)CC4)cnc32)cc1 [Formula IX]	156.13
NC(=O)c1ncc(-n2ccc3cc(C(=O)N4CCCCC4)cnc32)cn1 [Formula XII]	117.19

----------
# ASSAY_METHOD_TEXT: Pharmacokinetic study in mice, intravenous 1 mg/kg
# Format: in vivo, C57BL/6 mice

CPD_SMILES	AUClast
CNC(=O)c1ccc(-n2ccc3cc(C(=O)N4CCCCC4)cnc32)cc1	156.43 ng·h/mL
CNC(=O)c1ccc(-n2ccc3cc(C(=O)N4CCC(F)CC4)cnc32)cc1	211.95 ng·h/mL
O=C(c1cnc2c(ccn2-c2ccc(O)nc2)c1)N1CCCCC1	88.28 ng·h/mL
Cc1c(C(=O)N2CCC(F)CC2)cnc2c1ccn2-c1ccc(C(N)=O)cc1	256.19 ng·h/mL

----------
# TARGET_UNDER_TEST: 15-PGDH/HPGD (Homo sapiens (Human), UniProt P15428)
# ASSAY_METHOD_TEXT: hPGDH inhibitor screening biochemical assay
# CONDITIONS: 10 nM 15-PGDH/HPGD, 15 μM PGE2, 0.25 mM NAD; read-out: hPGDH: Average IC50
Measured IC50 accompanies every entry in the list below.
MEASURED_PROPERTY: IC50

MOLECULE	MEASURED_PROPERTY	RESULT
COc1ccccc1C(=O)Nc1ccc(C(=O)N2CCCCC2)cc1	IC50	< 100 nM
O=C(c1ccc2c(-c3cccc(Cl)c3)c[nH]c2c1)N1CCCCC1	IC50	< 100 nM
O=C(c1ccc(COc2ccccc2-c2cncs2)cc1)N1CCCCC1	IC50	< 100 nM
Cc1ccc(S(=O)(=O)n2ccc3cc(C(=O)N4CCCCC4)cnc32)cc1	IC50	≥ 1000 nM
O=C(O)Cc1ccc(-n2ccc3cc(C(=O)N4CCC(F)(F)CC4)cnc32)cc1	IC50	< 100 nM
Cc1c(C(=O)N2CCC(F)CC2)cnc2c1ccn2-c1ccc(C(N)=O)cc1	IC50	< 100 nM
N/C(=N\O)c1cccc(-n2ccc3cc(C(=O)N4CCCCC4)cnc32)c1	IC50	< 100 nM
O=C(c1ccn2c(-c3cccc(Cl)c3)cnc2c1)N1CCCCC1	IC50	< 100 nM
O=C(c1ccc(COc2ccccc2Cl)cn1)N1CCC(F)CC1	IC50	≥ 1000 nM
N#Cc1cc(-n2ccc3cc(C(=O)N4CCC(F)(F)CC4)cnc32)cnc1O	IC50	< 100 nM
COc1cccc(-c2cn(C)c3cc(C(=O)N4CCC(F)CC4)cnc23)c1	IC50	100 to 1000 nM
O=C(c1cnc2c(ccn2-c2ccc(O)nc2)c1)N1CCC(F)CC1	IC50	< 100 nM
N#Cc1ccc(-n2ccc3cc(C(=O)N4CCCCC4)cnc32)cn1	IC50	< 100 nM
NC(=O)CCc1nc2cc(C(=O)N3CCCCC3)ccc2n1-c1cccc(Cl)c1	IC50	< 100 nM
Cc1nc(-c2cccc(-n3ccc4cc(C(=O)N5CCCCC5)cnc43)c2)no1	IC50	< 100 nM
N#Cc1ccc(-n2ccc3cc(C(=O)N4CC[C@H](F)C4)cnc32)cc1 (single isomer, unassigned)	IC50	< 100 nM
O=C(c1ccc2c(c1)ncn2-c1cccc(Cl)c1)N1CC2CCC(C2)C1	IC50	< 100 nM
Cc1c(C(=O)N2CCC(F)CC2)cnc2c1ccn2-c1cnccn1	IC50	< 100 nM
O=C(c1cnc2c(c1)ncn2-c1ccc(F)c(F)c1)N1CCCCC1	IC50	< 100 nM
NC[C@@H]1CN(c2cncc(-n3ccc4cc(C(=O)N5CCC(F)(F)CC5)cnc43)c2)C(=O)O1	IC50	< 100 nM
CCNC(=O)c1ccc(-n2ccc3cc(C(=O)N4CCC(F)(F)CC4)cnc32)nc1	IC50	< 100 nM
O=C(NC(CO)CO)c1ccc(-n2ccc3cc(C(=O)N4CCC(F)(F)CC4)cnc32)cc1	IC50	< 100 nM
O=C(c1cnc2c(c1)ncn2-c1ccc(OC(F)(F)F)cc1)N1CCCCC1	IC50	< 100 nM
CCC(CC)n1cnc2cc(C(=O)N3CCC(F)CC3)cnc21	IC50	≥ 1000 nM
O=C(c1ccc(COc2ccccc2Cl)cc1)N1CCCCC1	IC50	< 100 nM
O=C(c1ccc2c(c1)CCCN2c1cccc(Cl)c1)N1CCCCC1	IC50	< 100 nM
CCOC(=O)Nc1cncc(-n2ccc3cc(C(=O)N4CCC(F)(F)CC4)cnc32)c1	IC50	< 100 nM
NC(=O)c1ccc(-n2ccc3cc(C(=O)N4CCCCC4)cnc32)cc1	IC50	< 100 nM
O=C(c1cnc2c(ccn2C2CCC(F)(F)CC2)c1)N1CCCCC1	IC50	≥ 1000 nM
COc1ccc(-n2cc(Cl)c3cc(C(=O)N4CCCCC4)cnc32)cc1	IC50	< 100 nM
CS(=O)(=O)NCCNC(=O)c1ccc(-n2ccc3cc(C(=O)N4CCC(F)(F)CC4)cnc32)cc1	IC50	< 100 nM
CC(C)(O)CCc1cc2cc(C(=O)N3CCC(F)(F)CC3)cnc2n1-c1ccc(C(=O)O)cc1	IC50	< 100 nM
CC(C)(CC(=O)O)NC(=O)c1ccc(-n2ccc3cc(C(=O)N4CCC(F)(F)CC4)cnc32)cc1	IC50	< 100 nM
O=C(c1cnc2c(ccn2-c2ccc(CO)cc2)c1)N1CCCCC1	IC50	< 100 nM
O=C(c1cnc2c(ccn2-c2ccc(O)nc2)c1)N1CCCCC1	IC50	< 100 nM
Cc1cncc(-n2cc(Cl)c3cc(C(=O)N4CCC(F)CC4)cnc32)n1	IC50	< 100 nM
COc1ccc(-n2cnc3cc(C(=O)N4CCC(F)(F)CC4)cnc32)cc1	IC50	< 100 nM
COc1ccc(-n2ccc3cc(C(=O)N4CCC(c5ccccc5)CC4)cnc32)cc1	IC50	≥ 1000 nM

These measurements were taken from patent US20230390274A1.
